- Tested system: Human Factor D (Homo sapiens (Human), UniProt P00746)
- Sequence (P00746 26-253): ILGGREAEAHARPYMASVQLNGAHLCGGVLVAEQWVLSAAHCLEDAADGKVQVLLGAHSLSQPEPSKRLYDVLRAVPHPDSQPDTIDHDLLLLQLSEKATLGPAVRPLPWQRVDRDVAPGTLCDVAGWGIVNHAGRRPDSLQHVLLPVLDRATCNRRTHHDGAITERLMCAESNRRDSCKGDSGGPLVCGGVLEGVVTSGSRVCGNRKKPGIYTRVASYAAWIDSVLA
- Procedure text: Human Factor D Assay
- Format: biochemical
- Condition notes: Table 7; read-out: IC5 (Stars)
pIC50: −log10 of the molar value.
Exercise: for every item that follows, state its recorded pIC50.

Compound: CC(=O)c1nn(CC(=O)N2[C@H](C(=O)Nc3nc(Br)ccc3C)C[C@@]3(C)C[C@@H]23)c2c(C)cc(NC(=O)C3CCCC3(F)F)cc12 (stereo partly drawn)
pIC50: > 6.00

Compound: Cc1ncc(-c2cc(CC(=O)N3C[C@H](F)C[C@H]3C(=O)Nc3cccc(-c4ccccc4Cl)c3F)cc(-c3cnc(O)nc3)c2)cn1
pIC50: < 5.00

Compound: Cc1ncc(-c2cc(CC(=O)N3[C@H](C(=O)Nc4nc(Br)ccc4C)C[C@@]4(C)C[C@@H]34)cc(-c3cnc(O)nc3)c2)cn1
pIC50: < 5.00

Compound: Cc1ccc(Br)nc1NC(=O)[C@@H]1C[C@@]2(C)C[C@H]2N1C(=O)Cc1ccc2[nH]nc(C(N)=O)c2c1
pIC50: < 5.00

Compound: Cc1ccc(Br)nc1NC(=O)[C@@H]1C[C@@]2(C)C[C@H]2N1C(=O)Cc1cccc(-c2cnc(O)nc2)c1
pIC50: < 5.00

Okay, next one:
I am curious: what pIC50 value has been reported for "CC(=O)c1nn(CC(=O)N2C[C@H](F)C[C@H]2C(=O)Nc2nc(Br)ccc2C)c2cc(OCP(=O)(O)O)ccc12" ?
> 6.00

###

Please respond with reported IC50 for every item in the list.
- Tested system: UniProt:P00746
- Procedure text: Human Factor D Assay
- Type: biochemical
- Condition notes: Table 7; read-out: IC5 (Stars)

Compound: Cc1ncc(-c2cc(CC(=O)N3C[C@H](F)C[C@H]3C(=O)Nc3cccc(-c4ccccc4Cl)c3F)cc(C(N)=O)c2)cn1
Measured parameter: IC50
Reported result: < 1 µM

Compound: Cc1ccc(Br)nc1NC(=O)[C@@H]1C[C@@]2(C)C[C@H]2N1C(=O)Cc1ccc2[nH]nc(Cl)c2c1 [Compound T-99]
Measured parameter: IC50
Reported result: 1 to 10 µM

Compound: Cc1ccc(Br)nc1NC(=O)[C@@H]1C[C@@]2(C)C[C@H]2N1C(=O)Cn1nc(NCCC(=O)O)c2ccncc21
Measured parameter: IC50
Reported result: > 10 µM

Compound: C#CCNC(=O)c1nn(CC(=O)N2[C@H](C(=O)Nc3nc(Br)ccc3C)C[C@@]3(C)C[C@@H]23)c2ccc(-c3cnc(C)nc3)cc12
Measured parameter: IC50
Reported result: < 1 µM

Compound: Cc1ncc(-c2cc(C#N)cc(CC(=O)N3C[C@H](F)C[C@H]3C(=O)Nc3cccc(Br)n3)c2)cn1 [Compound T-114]
Measured parameter: IC50
Reported result: 1 to 10 µM

Compound: CC(=O)c1nn(CC(=O)N2C[C@H](F)C[C@H]2C(=O)NCc2cccc(Cl)c2F)c2cc(OCP(=O)(O)O)ccc12
Measured parameter: IC50
Reported result: < 1 µM

I'm hoping you can list IC50 for every compound here, please.
1. Cc1ncc(-c2cc(CC(=O)N3C[C@H](F)C[C@H]3C(=O)Nc3cccc(Br)n3)cc(C(N)=O)c2)cn1 [Compound T-167]
2. COc1cc(CC(=O)N2[C@H](C(=O)Nc3nc(Br)ccc3C)C[C@@]3(C)C[C@@H]23)cc(-c2cnc(O)nc2)c1
3. Cc1ncc(-c2cc(CC(=O)N3C[C@H](F)C[C@H]3C(=O)Nc3cccc(-c4ccccc4Cl)c3F)cc(OCC(=O)O)c2)cn1 [Compound T-176]
4. CC(=O)c1nn(CC(=O)N2[C@H](C(=O)Nc3nc(Br)ccc3C)C[C@@]3(C)C[C@@H]23)c2ccc(Nc3cccn(-c4ccccn4)c3=O)cc12
5. Cc1ccc(Br)nc1NC(=O)[C@@H]1C[C@@]2(CNC(=O)COCCOCCNC(=O)COCCOCCNC(=O)CC[C@H](NC(=O)CCCCCCCCCCCCCCCCC(=O)O)C(=O)O)C[C@H]2N1C(=O)Cn1nc(C(N)=O)c2cc(C#Cc3ncc(F)cn3)ccc21

1 to 10 µM
< 1 µM
1 to 10 µM
< 1 µM
< 1 µM

I'm hoping you can list IC50 for every compound here, please.
1. CC(=O)c1nn(CC(=O)N2[C@H](C(=O)NCc3cccc(Cl)c3F)C[C@@]3(C)C[C@@H]23)c2c(C)cc(NC(=O)N3CCCC(F)(F)C3)cc12
2. Cc1ccc(Br)nc1NC(=O)[C@@H]1C[C@@]2(C)C[C@H]2N1C(=O)Cc1ccc2[nH]nc(Cl)c2c1 [Compound T-155]

< 1 µM
1 to 10 µM

Given the entry Cc1ccc(Br)nc1NC(=O)[C@@H]1C[C@@]2(C)C[C@H]2N1C(=O)Cn1nc(C(N)=O)c2cc(NC(=O)C3CCCC3(F)F)ccc21 (some centres unmarked) , what IC50 was observed with UniProt:P00746?
< 1 µM
